The measurements presented in this section are drawn from patent US20260356933.

# tested_on: IL6 (human, UniProt P05231)
# Sequence (P05231 30-212): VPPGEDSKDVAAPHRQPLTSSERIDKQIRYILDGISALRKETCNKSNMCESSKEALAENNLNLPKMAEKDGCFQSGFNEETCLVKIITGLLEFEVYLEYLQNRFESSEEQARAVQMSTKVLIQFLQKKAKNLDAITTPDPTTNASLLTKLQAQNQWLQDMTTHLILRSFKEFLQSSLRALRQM
# measurement_description: ELISA, apparent
What Kd was measured for each of the following?
Numbers only, in nM.

Worked set:
binder	reported_value
SIL-2E7 (antibody, V domains shown) VH: EVQLVESGGGLVQAGGSLRLSCAASGRTFSKNTMGWFRQAPGKEREFVAAISWSVGSTYYGDSVNGRFTISRDDAKNTVYLQMNSLKPEDTAIYYCAADSSHYMLHPELREYDYWGQGTQVTVSS	2
SIL-3B6 (antibody, V domains shown) VH: EVQLVESGGGLVQPGGSLRLSCAASGSIFDDHAIGWFRQAPGKEREGVSSIMTSDDSTHYADSVKGRFTVSRDKAKNTVYLQMNDLKPEDTAVYYCAATDVFGLQYSSFLKSYEYDYWGQGTQVTVSS	20

Next binder, Kd to be filled in.
In: Tell me measured Kd for SIL-2D1 (antibody, V domains shown) VH: EVQLVESGGGSVQPGGSLRLSCAASGFTLADESSGWFRQAPGKEREGVSCISITDGITYYADSVKGRFTISRDNAKNTLYLQMNSLKPEDTAVYYCATGNPYCSGHAGTEYDDWGQGTQVTVSS please.
Out: 80
